experiment: 8-h oral plasma pharmacokinetics and tissue distribution, female wild-type, Cyp3a−/− and Cyp3aXAV mice; assay type: in vivo; conditions: female, FVB, mouse, plasma, po, 10 mg/kg, female Cyp3aXAV mice, 10 mg/kg oral, 8 h; read-out: AUC0–8h

substanceSmiles | unitAnnotation | AUC(0-t)
C[C@H]1CNC(=O)c2cnn3ccc(nc23)N[C@H](C)c2cc(F)ccc2O1 | ng·h/mL | 18900

====

test: 8-h pilot oral plasma pharmacokinetics and tissue distribution, female wild-type, Abcb1a/1b;Abcg2−/− and Oatp1a/1b−/− mice; assay type: in vivo; conditions: female, FVB, mouse, brain, po, 10 mg/kg, Table S1; female wild-type mice, 10 mg/kg oral, 8 h; read-out: Cbrain

compound | unitAnnotation | concentration at 8 h
C[C@H]1CNC(=O)c2cnn3ccc(nc23)N[C@H](C)c2cc(F)ccc2O1 [repotrectinib] | ng/g | 51.2

====

assay: 8-h oral plasma pharmacokinetics and tissue distribution, female wild-type, Cyp3a−/− and Cyp3aXAV mice; format: in vivo; conditions: female, FVB, mouse, plasma, po, 10 mg/kg, elimination half-life; female wild-type mice, 10 mg/kg oral, 8 h

molecule | unitAnnotation | half-life
C[C@H]1CNC(=O)c2cnn3ccc(nc23)N[C@H](C)c2cc(F)ccc2O1 [repotrectinib] | h | 1.6

====

assay: 4-h oral plasma pharmacokinetics and tissue distribution, male wild-type and ABC transporter knockout mice; assay type: in vivo; settings: male, FVB, mouse, testis, po, 10 mg/kg, male Abcg2−/− mice, 10 mg/kg oral, 4 h; read-out: Testis-to-plasma ratio

substanceSmiles | Kp at 4 h
C[C@H]1CNC(=O)c2cnn3ccc(nc23)N[C@H](C)c2cc(F)ccc2O1 | 0.17

====

assay: 8-h oral plasma pharmacokinetics and tissue distribution, female wild-type, Cyp3a−/− and Cyp3aXAV mice; assay type: in vivo; settings: female, FVB, mouse, liver, po, 10 mg/kg, female wild-type mice, 10 mg/kg oral, 8 h; read-out: Liver-to-plasma ratio

compound | Kp at 8 h
C[C@H]1CNC(=O)c2cnn3ccc(nc23)N[C@H](C)c2cc(F)ccc2O1 [repotrectinib] | 5.36

====

assay: 8-h oral plasma pharmacokinetics and tissue distribution, female wild-type, Cyp3a−/− and Cyp3aXAV mice; type: in vivo; settings: FVB, mouse, plasma; median (range); female wild-type mice, 10 mg/kg oral, 8 h; read-out: Tmax

substanceSmiles | Tmax
C[C@H]1CNC(=O)c2cnn3ccc(nc23)N[C@H](C)c2cc(F)ccc2O1 | 30 min

====

test: 4-h oral plasma pharmacokinetics and tissue distribution, male wild-type and ABC transporter knockout mice; format: in vivo; conditions: male, FVB, mouse, small intestinal content, po, 10 mg/kg, male Abcg2−/− mice, 10 mg/kg oral, 4 h; read-out: SIC (%)-to-plasma ratio
reportedEndpoint: Kp at 4 h

substanceSmiles | experimentalValue
C[C@H]1CNC(=O)c2cnn3ccc(nc23)N[C@H](C)c2cc(F)ccc2O1 | 0.00475

====

Test: 4-h oral plasma pharmacokinetics and tissue distribution, male wild-type and ABC transporter knockout mice
Assay type: in vivo
Conditions: male, FVB, mouse, liver, po, 10 mg/kg, male Abcb1a/1b;Abcg2−/− mice, 10 mg/kg oral, 4 h; read-out: Cliver
Excerpt: Mice with similar average ages (and body weights) were randomly allocated in experimental groups as far as possible. […] Given the objective main readout (repotrectinib plasma and tissue concentrations as measured by LC-MS/MS), no blinding method was applied. […] A sensitive and specific liquid chromatography-tandem mass spectrometry method using protein precipitation pre-treatment was adopted to quantify the concentration of repotrectinib in DMEM medium, plasma samples and tissue homogenates. […]
reportedEndpoint: concentration at 4 h

compound | experimentalValue
C[C@H]1CNC(=O)c2cnn3ccc(nc23)N[C@H](C)c2cc(F)ccc2O1 [repotrectinib] | 9090 ng/g

The values you see were collected from paper PMC8619046.
